assay-remarks: qHTS assay to test for compound auto fluorescence at 590 nm (red) in HepG2 cell free culture (AID 720684)
experimental-setup: cell-free medium autofluorescence, red 540/590 nm; series mostly up to 46 µM
Calls of active or inactive are those of the source. Calls come from the whole dose curve; as a rule, active = well fitted curve in the direction sought with a large enough effect in the repeat runs; inconclusive = weak or mixed curves; inactive = flat fitted curve, though single readings scatter.
Hi there, use one of these labels in your reply, thanks! label 1 = active, label 0 = inactive

>  <molecule>
CN1c2c(nc(N)[nH]c2=O)NCC1CNc1ccc(C(=O)NC(CCC(=O)O)C(=O)O)cc1 (stereo not drawn)

>  <answer-label>
label 0

$$$$
>  <molecule>
C=C1/C(=C\C=C2/CCC[C@]3(C)[C@@H]([C@H](C)OCCC(C)(C)O)CC[C@@H]23)C[C@@H](O)C[C@@H]1O

>  <answer-label>
label 0

$$$$
>  <molecule>
CC(CN(C)C)CN1c2ccccc2S(=O)(=O)c2ccccc21 (stereo not drawn)

>  <answer-label>
label 0

$$$$
>  <molecule>
CCOC(=O)[C@H](CCc1ccccc1)N[C@@H](C)C(=O)N1CC2(C[C@H]1C(=O)O)SCCS2

>  <answer-label>
label 0

$$$$
>  <molecule>
c1cnc2cc3c(cc2n1)[C@@H]1CNC[C@H]3C1

>  <answer-label>
label 0

$$$$
>  <molecule>
C=C1CC[C@@H]2[C@](C)(CO)[C@H](O)CC[C@@]2(C)[C@@H]1C/C=C1/C(=O)OC[C@H]1O

>  <answer-label>
label 0

$$$$
>  <molecule>
C=CCN1CCCC1CNC(=O)c1cc(S(N)(=O)=O)cc(OC)c1OC (stereo not drawn)

>  <answer-label>
label 0

$$$$
>  <molecule>
CCCC(=O)Nc1ncnc2c1ncn2[C@@H]1O[C@@H]2COP(=O)(O)O[C@H]2[C@H]1OC(=O)CCC

>  <answer-label>
label 0

$$$$
>  <molecule>
Cc1ccc(C2(O)CCN(CCCC(=O)c3ccc(F)cc3)CC2)cc1

>  <answer-label>
label 0

$$$$
>  <molecule>
CN(C)c1ccc(C(=C2C=CC(=[N+](C)C)C=C2)c2c(O)c(S(=O)(=O)[O-])cc3cc(S(=O)(=O)O)ccc23)cc1

>  <answer-label>
label 0

$$$$

Input line: Hello, I am checking results. What call was entered for CC1(O)CCC(C(C)(C)O)CC1 (stereo not drawn) ?
Output line: label 0

Input line: Hello, I am checking results. What call was entered for COc1cc(C)c(/C=C/C(C)=C/C=C/C(C)=C/C(=O)O)c(C)c1C ?
Output line: label 0

Input line: Hello, I am checking results. What call was entered for COc1ccc(C[C@@H](C)NC[C@H](O)c2ccc(O)c(NC=O)c2)cc1 ?
Output line: label 0

Input line: Hello, I am checking results. What call was entered for COc1ccc(-c2noc(CC(=O)O)c2-c2ccc(OC)cc2)cc1 ?
Output line: label 0

Input line: Hello, I am checking results. What call was entered for C[C@]12C=CC(=O)C=C1CC[C@@H]1[C@@H]2[C@@H](O)C[C@@]2(C)[C@H]1CC[C@]2(O)C(=O)COC(=O)CCC(=O)O ?
Output line: label 0

Input line: Hello, I am checking results. What call was entered for CCCCCCCCCCCCCCCCCC(=O)[O][Al] ?
Output line: label 0
